# Test system: NUGC-3
# experimental_details: Cytotoxicity against human NUGC3 cells assessed as growth inhibition after 72 hrs by SRB assay
# Type: functional
Please provide measured GI50 for the entries that follow.
One number for each entry, in nM.

// solved cases for GI50 follow
Per the record, Clc1ccc2c(c1)-c1nc3cnc4ccccc4c3cc1CO2 has GI50 of 1160

Measured GI50, Fc1ccc2c(c1)-c1nc3cnc4ccccc4c3cc1CO2 : 1370

So for COc1cccc2c1OCc1c-2nc2cnc3ccccc3c2c1C , the logged GI50 turned out to be 1560

Let's switch to this compound now.
Form field GI50, entry Cc1ccc(-c2c3c(nc4cnc5ccccc5c24)-c2ccccc2OC3)cc1 : 2700

----------
# Test system: ACHN
# experimental_details: Cytotoxicity against human ACHN cells assessed as growth inhibition after 72 hrs by SRB assay
# Assay type: functional
readout_type: GI50 (µM)
Numbers only, in µM.

Per the records, this molecule ( COc1cccc2c1OCc1c-2nc2cnc3ccccc3c2c1C ) has GI50 equal to 2.01
